// provenance: BigSolDB 2.1

# CONDITION DESCRIPTION: in chloroform, 303.75 K
ASSAY ENDPOINT: solubility (mole fraction)
Write the number on its own, no unit after it.

[ask] Any idea what its solubility (mole fraction) is? The molecule is CC(C)C(N)=O
[reply] 0.0529

* * *

# CONDITION DESCRIPTION: in cyclohexanone, 279.15 K
ASSAY ENDPOINT: solubility (mole fraction)
Write the number on its own, no unit after it.

[ask] Any idea what its solubility (mole fraction) is? The molecule is CC(C)C(N)=O
[reply] 0.0333

* * *

# CONDITION DESCRIPTION: in acetonitrile, 324.15 K
ASSAY ENDPOINT: solubility (mole fraction)

[ask] Any idea what its solubility (mole fraction) is? The molecule is CC(C)C(N)=O
[reply] 0.116
